Sourced from patent US20250019450A1

Biological target: T1, cyno IL-12RB2 with C-terminal HA tag, transiently expressed on HEK-293T cells (cyno, UniProt A0A2K5VNI7 24-860)
T1 construct: whole, on cells; also called cyno IL-12Rβ2
T1 sequence: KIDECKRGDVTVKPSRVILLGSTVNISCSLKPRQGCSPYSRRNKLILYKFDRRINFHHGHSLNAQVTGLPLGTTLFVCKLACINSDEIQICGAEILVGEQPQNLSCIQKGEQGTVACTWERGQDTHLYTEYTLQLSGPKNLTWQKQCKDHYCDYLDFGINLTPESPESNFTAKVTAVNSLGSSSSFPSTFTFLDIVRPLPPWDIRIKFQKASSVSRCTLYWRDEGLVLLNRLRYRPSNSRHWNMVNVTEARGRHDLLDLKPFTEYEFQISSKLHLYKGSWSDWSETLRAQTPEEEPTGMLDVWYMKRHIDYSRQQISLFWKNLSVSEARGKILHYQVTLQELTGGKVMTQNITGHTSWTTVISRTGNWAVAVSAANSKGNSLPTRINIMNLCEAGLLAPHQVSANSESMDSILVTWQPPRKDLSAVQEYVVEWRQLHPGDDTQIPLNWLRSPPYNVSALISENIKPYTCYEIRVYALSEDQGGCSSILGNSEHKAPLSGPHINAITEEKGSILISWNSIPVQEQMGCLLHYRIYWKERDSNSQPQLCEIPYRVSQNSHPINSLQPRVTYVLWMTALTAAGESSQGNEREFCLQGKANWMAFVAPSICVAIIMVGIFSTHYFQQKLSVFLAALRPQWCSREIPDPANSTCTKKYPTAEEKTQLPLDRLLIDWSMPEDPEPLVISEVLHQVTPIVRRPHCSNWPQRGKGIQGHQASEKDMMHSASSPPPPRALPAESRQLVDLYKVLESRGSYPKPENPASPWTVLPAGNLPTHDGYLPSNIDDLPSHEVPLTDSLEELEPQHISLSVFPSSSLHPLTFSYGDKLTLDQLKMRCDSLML
Assay: FACS, periplasmic extract, HEK-293T
Quantity: FOB (fold)

VHH307B2 (VHH) VHH: QVQLVESGGGLVQAGGSLRLSCAASGRTFSRYIMGWFRQATGKEREFVAAISWSGLSTHYADSVQGRFTISRDNAENTVYLQMNSLKPEDTAVYYCAADRHWETRLLPREYDYWGQGTQVTVSS	3.16

(a) VHH277B2 (VHH) VHH: QVQLVESGGGLVQLGDSLRLSCAASGRGFSSWTMAWFRQALGKRREFVAAITATGARTCSAESEGRFTISRDNAKNMVFLQMNSLKAEDTAVYYCAATEIAGWDPGMGDKYPYWGQGTQVTVSS
(b) VHH94B2 (VHH) VHH: EVQLVESGGGLVQPGGSLRLSCAASGFTFSSYAMSWVRQAPGKGLEWVSAINSGGDSTSYADSVEGRFTISRDNAKNTLYLQMNSLKPDDTAVYYCAKWSDCSEYGCYDQTTTEGTQVTVSS
Prompt: Could you please tell me which of these two has the higher FOB: a or b ? Mark your answer with the label of the selected entry.
Completion: b
